Origin of measurements: patent US8173813B2

Quick reference for pIC50 among some compounds
experimental.system: Recombinant human inducible NOS (iNOS) (Homo sapiens)
Sequence (P35228 whole entry): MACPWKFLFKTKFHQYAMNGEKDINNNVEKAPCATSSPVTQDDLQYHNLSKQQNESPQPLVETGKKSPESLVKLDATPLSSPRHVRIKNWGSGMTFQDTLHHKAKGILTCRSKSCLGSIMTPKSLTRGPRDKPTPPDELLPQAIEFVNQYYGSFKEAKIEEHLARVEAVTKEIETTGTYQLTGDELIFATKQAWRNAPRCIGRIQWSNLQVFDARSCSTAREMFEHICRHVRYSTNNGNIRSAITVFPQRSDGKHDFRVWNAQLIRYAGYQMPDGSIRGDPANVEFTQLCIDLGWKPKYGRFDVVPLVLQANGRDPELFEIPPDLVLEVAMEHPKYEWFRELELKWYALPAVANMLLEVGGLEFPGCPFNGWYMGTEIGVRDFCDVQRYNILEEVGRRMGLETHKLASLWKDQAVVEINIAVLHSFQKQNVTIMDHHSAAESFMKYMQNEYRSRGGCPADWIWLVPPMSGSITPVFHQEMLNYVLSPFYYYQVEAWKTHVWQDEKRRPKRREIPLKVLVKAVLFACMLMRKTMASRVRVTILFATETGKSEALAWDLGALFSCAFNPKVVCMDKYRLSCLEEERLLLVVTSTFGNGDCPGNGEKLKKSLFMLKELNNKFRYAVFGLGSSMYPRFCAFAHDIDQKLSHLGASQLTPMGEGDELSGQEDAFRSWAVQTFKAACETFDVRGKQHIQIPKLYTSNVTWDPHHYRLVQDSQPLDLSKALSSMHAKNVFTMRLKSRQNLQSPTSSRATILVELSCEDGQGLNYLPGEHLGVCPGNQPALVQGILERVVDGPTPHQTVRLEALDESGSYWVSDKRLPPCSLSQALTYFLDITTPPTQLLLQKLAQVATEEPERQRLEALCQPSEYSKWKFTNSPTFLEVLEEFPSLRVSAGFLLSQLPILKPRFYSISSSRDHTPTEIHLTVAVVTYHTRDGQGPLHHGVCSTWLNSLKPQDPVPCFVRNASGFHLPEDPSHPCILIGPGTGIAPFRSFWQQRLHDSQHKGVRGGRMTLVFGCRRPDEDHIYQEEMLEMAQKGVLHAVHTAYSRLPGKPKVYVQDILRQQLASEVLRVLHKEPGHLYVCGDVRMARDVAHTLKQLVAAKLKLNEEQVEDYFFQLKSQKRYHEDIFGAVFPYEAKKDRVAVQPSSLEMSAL
protocol.description: Human iNOS enzyme assay, radiometric
Format: biochemical
condition.info: read-out: hiNOS IC50
pIC50: −log10 of the molar value.

Answered examples (2):
>>> value_measured("CN1CCCC1CCN1CCCc2cc(NC(=N)c3cccs3)ccc21 (single isomer, unassigned) [Example 23]")
"< 4.00"
>>> value_measured("CN1CCCC1CCN1CCCc2cc(NC(=N)c3cccs3)ccc21 (stereo not drawn) [Example 14]")
"< 4.00"

pIC50 recorded for this compound, Cl.Cl.N=C(Nc1ccc2c(c1)CCN2C1CCNCC1)c1cccs1 [Example 54, dihydrochloride] , is < 4.00

---

# pIC50 values compiled below
experimental.system: Recombinant human inducible NOS (iNOS) (Homo sapiens)
protocol.description: Human iNOS enzyme assay, radiometric
Assay type: biochemical
condition.info: human recombinant iNOS; values without parentheses; read-out: hiNOS IC50
Hey, just a heads up that pIC50 is the negative log base 10 of the concentration in molar.

Worked examples, 3 compounds total:
>>> value_measured("CN(C)CCCN1CCCc2cc(NC(=N)c3cccs3)ccc21")
4.46
>>> value_measured("CN1CCC(C2C(=O)Nc3ccc(NC(=N)c4cccs4)cc32)CC1 (stereo not drawn)")
5.26
>>> value_measured("N=C(Nc1ccc2c(c1)CCC(=O)N2CCN1CCCCC1)c1cccs1")
4.41

The record that follows has no pIC50 shown yet.
// pIC50 lookup, compound = "CN(C)CCN1C(=O)CCc2cc(NC(=N)c3cccs3)cc(F)c21" , result: 5.49

---

experimental.system: Nitric oxide synthase (endothelial, human recombinant) eNOS (Homo sapiens)
Sequence (P29474 2-1203): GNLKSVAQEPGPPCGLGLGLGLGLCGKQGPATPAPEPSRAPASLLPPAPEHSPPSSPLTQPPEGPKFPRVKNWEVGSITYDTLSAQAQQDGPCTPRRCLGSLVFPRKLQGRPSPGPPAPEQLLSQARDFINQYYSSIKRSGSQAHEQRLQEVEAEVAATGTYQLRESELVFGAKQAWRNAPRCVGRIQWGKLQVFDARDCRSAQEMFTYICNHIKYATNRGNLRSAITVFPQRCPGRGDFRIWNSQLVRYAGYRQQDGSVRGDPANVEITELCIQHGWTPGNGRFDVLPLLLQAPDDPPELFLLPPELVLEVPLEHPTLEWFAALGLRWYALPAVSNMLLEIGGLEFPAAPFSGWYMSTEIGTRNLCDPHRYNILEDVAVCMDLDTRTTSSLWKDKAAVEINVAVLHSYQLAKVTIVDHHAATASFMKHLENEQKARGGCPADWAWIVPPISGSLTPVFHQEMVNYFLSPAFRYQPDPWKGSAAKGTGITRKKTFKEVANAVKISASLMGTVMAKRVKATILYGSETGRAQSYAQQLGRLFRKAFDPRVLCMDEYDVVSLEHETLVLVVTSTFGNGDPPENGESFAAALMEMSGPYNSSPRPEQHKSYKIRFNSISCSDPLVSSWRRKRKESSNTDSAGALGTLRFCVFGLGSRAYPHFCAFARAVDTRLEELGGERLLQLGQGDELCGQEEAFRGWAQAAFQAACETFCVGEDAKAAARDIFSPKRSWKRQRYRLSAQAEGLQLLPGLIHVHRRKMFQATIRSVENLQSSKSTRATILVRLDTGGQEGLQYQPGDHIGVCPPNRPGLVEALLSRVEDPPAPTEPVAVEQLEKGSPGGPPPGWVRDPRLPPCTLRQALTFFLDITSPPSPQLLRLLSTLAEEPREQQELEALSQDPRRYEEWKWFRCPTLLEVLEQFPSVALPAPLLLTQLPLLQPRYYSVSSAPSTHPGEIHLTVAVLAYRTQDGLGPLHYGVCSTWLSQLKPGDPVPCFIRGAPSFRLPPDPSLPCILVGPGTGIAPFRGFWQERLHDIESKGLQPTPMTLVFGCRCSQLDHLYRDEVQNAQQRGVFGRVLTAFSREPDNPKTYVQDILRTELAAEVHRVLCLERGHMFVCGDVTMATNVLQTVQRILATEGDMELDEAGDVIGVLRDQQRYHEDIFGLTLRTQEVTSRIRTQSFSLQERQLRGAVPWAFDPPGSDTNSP
protocol.description: Human eNOS enzyme assay ([3H]L-arginine to [3H]L-citrulline)
Type: biochemical
condition.info: human recombinant eNOS; values without parentheses; read-out: heNOS IC50
endpoint: IC50 (µM)
Give a bare numeral; the unit µM is implied.

# count of solved cases: 4
>>> value_measured("CN1CCCC1CCN1C(=O)CCc2cc(NC(=N)c3cccs3)ccc21 (centres unmarked)")
68.9
>>> value_measured("CN(C)CCN1CCCc2ccc(NC(=N)c3cccs3)cc21")
37.7
>>> value_measured("CN1CCC(N2CCCc3cc(NC(=N)c4cccs4)ccc32)C1 (single isomer, unassigned) [Example 57]")
199
>>> value_measured("CN1CCC(N2CCCc3cc(NC(=N)c4cccs4)ccc32)C1 (single isomer, unassigned) [Example 56]")
18.3

Field IC50 (entry "N=C(Nc1ccc2c(c1)CCC(=O)N2CCCN1CCCCC1)c1cccs1" ) reads 10.2

---

experimental.system: Recombinant human inducible NOS (iNOS) (Homo sapiens)
protocol.description: Human iNOS enzyme assay, radiometric
Format: biochemical
condition.info: human recombinant iNOS; values without parentheses; read-out: hiNOS IC50
endpoint: IC50

Example entries and their recorded answers appear below.
>>> value_measured("CN(C)CCN1C(=O)CCCc2cc(NC(=N)c3cccs3)ccc21")
"> 100 µM"
>>> value_measured("CN(C)CCN1C(=O)CCCc2cccc(NC(=N)c3cccs3)c21")
"> 100 µM"

Form field IC50, entry "N=C(Nc1ccc2c(c1)CCCCN2CCN1CCCCC1)c1cccs1" : > 100 µM

---

Measured pIC50, listed per entry.
experimental.system: Nitric oxide synthase (endothelial, human recombinant) eNOS (Homo sapiens)
protocol.description: Human eNOS enzyme assay ([3H]L-arginine to [3H]L-citrulline)
Format: biochemical
condition.info: read-out: heNOS IC50
Where a name gives a salt, the structure may show the parent alone.
Formally, pIC50 is defined as -log10 of the concentration c, with c in mol/L.

Illustrative cases are given below, each with its answer.
>>> value_measured("CN(C)CCN1C(=O)CCc2cc(NC(=N)c3cccs3)cc(F)c21")
3.71
>>> value_measured("CN(C)CCN1CCCc2cc(NC(=N)c3cccs3)cc(F)c21")
4.61
>>> value_measured("N=C(Nc1ccc2c(c1)CCCN2C1CCNC1)c1cccs1 (stereo not drawn) [Example 29, dihydrochloride]")
4.63
>>> value_measured("CN1CCC(N2CCCCc3cc(NC(=N)c4cccs4)ccc32)CC1")
4.70
>>> value_measured("N=C(Nc1ccc2c(c1)CCC(=O)N2CCN1CCCC1)c1cccs1")
4.53

The compound CN(C)CCN1CCCCc2cc(NC(=N)c3cccs3)ccc21.Cl.Cl [Example 28, dihydrochloride] , tested on Nitric oxide synthase (endothelial, human recombinant) eNOS (Homo sapiens), showed pIC50 of 4.00

Measured on Nitric oxide synthase (endothelial, human recombinant) eNOS (Homo sapiens), "CCN(CC)CCN1C(=O)CCc2cc(NC(=N)c3cccs3)ccc21" has a documented pIC50 of 4.13

Field pIC50 (system: Nitric oxide synthase (endothelial, human recombinant) eNOS (Homo sapiens)) for entry "N=C(Nc1ccc2c(c1)CCC(=O)N2CCCN1CCCC1)c1cccs1" = 4.61

Form field pIC50 for item N=C(Nc1ccc2c(c1)CCCCN2C1CCNC1)c1cccs1 (stereo not drawn) on Nitric oxide synthase (endothelial, human recombinant) eNOS (Homo sapiens): 4.12
